Tested on: KG-1
Experiment: Growth inhibition assay for NHL lines
Format: cell-based
Conditions: KG-1, Leukemia M-AML, 96 hours, n ≧ 3
pIC50: −log10 of the molar value.
Recorded metric: pIC50

substance_smiles=CO[C@H]1CC[C@H](N2C(=O)CNc3ncc(-c4ccc(C(C)(C)O)nc4)nc32)CC1 measurement=6.43
